- Test system: U-251
- method_description: Induction of NO production in human U251 cells at 100 uM after 30 to 300 mins by Griess assay
- Assay type: functional, cell-based
Active and inactive are the calls of the source. The rule behind the calls is not given here.
measure: Activity

• CC(C)=CCC/C(C)=C/CC/C(C)=C/CSc1ccccc1C(=O)NCC(=O)OCCOCCOc1no[n+]([O-])c1S(=O)(=O)c1ccccc1 = Active
• CC(C)=CCC/C(C)=C/CC/C(C)=C/CSc1ccccc1C(=O)N1CCC[C@H]1C(=O)OCC#CCOc1no[n+]([O-])c1S(=O)(=O)c1ccccc1 = Active
• CC(C)=CCC/C(C)=C/CC/C(C)=C/CSc1ccccc1C(=O)NCC(=O)OCC#CCOc1no[n+]([O-])c1S(=O)(=O)c1ccccc1 = Active

###

- Test system: U-251
- method_description: Induction of NO production in human U251 cells at 100 uM after 30 to 300 mins by Griess assay
- Type: functional, cell-based
Calls of active or inactive are those of the source. The rule behind the calls is not given here.
measure: Activity

* CC(C)=CCC/C(C)=C/CC/C(C)=C/CSc1ccccc1C(=O)N[C@@H](Cc1ccccc1)C(=O)OC(C)CCOc1no[n+]([O-])c1S(=O)(=O)c1ccccc1 (stereo partly drawn) | Active
* CC(C)=CCC/C(C)=C/CC/C(C)=C/CSc1ccccc1C(=O)N[C@@H](C)C(=O)OCCOCCOc1no[n+]([O-])c1S(=O)(=O)c1ccccc1 | Active
* CC(C)=CCC/C(C)=C/CC/C(C)=C/CSc1ccccc1C(=O)N1CCC[C@H]1C(=O)OCCOCCOc1no[n+]([O-])c1S(=O)(=O)c1ccccc1 | Active

###

- method_description: Cytotoxicity against human U87 cells after 48 hrs by MTT assay
- Format: functional, cell-based, U-87MG ATCC
- measurement_conditions: U-87 MG
measure: pIC50
The meaning of pIC50 here: minus log10 of the concentration in molar units.

Form: compound = CNC(=O)c1cc(Oc2ccc(NC(=O)Nc3ccc(Cl)c(C(F)(F)F)c3)cc2)ccn1 [SORAFENIB] ; pIC50 = 4.68

Form: compound = CC(C)=CCC/C(C)=C/CC/C(C)=C/CSc1ccccc1C(=O)N[C@@H](C)C(=O)OCCCCOc1no[n+]([O-])c1S(=O)(=O)c1ccccc1 ; pIC50 = 4.58

Form: compound = CC(C)=CCC/C(C)=C/CC/C(C)=C/CSc1ccccc1C(=O)N[C@@H](C)C(=O)OCCOCCOc1no[n+]([O-])c1S(=O)(=O)c1ccccc1 ; pIC50 = 4.74

Form: compound = CC(C)=CCC/C(C)=C/CC/C(C)=C/CSc1ccccc1C(=O)N[C@@H](C)C(=O)OCC#CCOc1no[n+]([O-])c1S(=O)(=O)c1ccccc1 ; pIC50 = 5.29

Form: compound = CC(C)=CCC/C(C)=C/CC/C(C)=C/CSc1ccccc1C(=O)NCC(=O)OCCOCCOc1no[n+]([O-])c1S(=O)(=O)c1ccccc1 ; pIC50 = 5.13

Form: compound = CC(C)=CCC/C(C)=C/CC/C(C)=C/CSc1ccccc1C(=O)NCC(=O)OC(C)CCOc1no[n+]([O-])c1S(=O)(=O)c1ccccc1 (configuration not stated) ; pIC50 = 4.81

Form: compound = CC(C)=CCC/C(C)=C/CC/C(C)=C/CSc1ccccc1C(=O)NCC(=O)OCC#CCOc1no[n+]([O-])c1S(=O)(=O)c1ccccc1 ; pIC50 = 4.83

Form: compound = CC(C)=CCC/C(C)=C/CC/C(C)=C/CSc1ccccc1C(=O)O [SALIRASIB] ; pIC50 = 4.27

###

- method_description: Cytotoxicity against human U87 cells after 48 hrs by MTT assay
- Format: functional, cell-based, U-87MG ATCC
- measurement_conditions: U-87 MG
measure: IC50 (µM)
Form entry: value (µM) — number only.

Form: compound = CC(C)=CCC/C(C)=C/CC/C(C)=C/CSc1ccccc1C(=O)N1CCC[C@H]1C(=O)OC(C)CCOc1no[n+]([O-])c1S(=O)(=O)c1ccccc1 (stereo partly specified) ; IC50 = 8.47

Form: compound = CC(C)=CCC/C(C)=C/CC/C(C)=C/CSc1ccccc1C(=O)N1CCC[C@H]1C(=O)OCCCCOc1no[n+]([O-])c1S(=O)(=O)c1ccccc1 ; IC50 = 9

Form: compound = CC(C)=CCC/C(C)=C/CC/C(C)=C/CSc1ccccc1C(=O)N1CCC[C@H]1C(=O)OCCOCCOc1no[n+]([O-])c1S(=O)(=O)c1ccccc1 ; IC50 = 12.9

Form: compound = CC(C)=CCC/C(C)=C/CC/C(C)=C/CSc1ccccc1C(=O)N[C@@H](C)C(=O)OC(C)CCOc1no[n+]([O-])c1S(=O)(=O)c1ccccc1 (stereo partly specified) ; IC50 = 20.4

Form: compound = CC(C)=CCC/C(C)=C/CC/C(C)=C/CSc1ccccc1C(=O)N1CCC[C@H]1C(=O)OCC#CCOc1no[n+]([O-])c1S(=O)(=O)c1ccccc1 ; IC50 = 13.5

Measured values drawn from ChEMBL document CHEMBL1157810 for this set.
